Reported Relative potency (W-2 clone) values are given for each entry in this list.
# Test system: P. falciparum W-2 clone
# procedure-summary: In vitro antimalarial activity, P. falciparum W-2 clone
# Type: cell-based
# condition-set: Table 3; tricyclic analogs; W-2 clone
# answer = number (no unit)

Example cases with answers are listed next.
C[C@H]1C(=O)O[C@@H]2OC(C)(C)OO[C@@]23CCCC[C@@H]13 (relative stereo)
6
CC1C(=O)OC(O[Si](C)(C)C(C)(C)C)C2(OO)CCCCC12 (stereo not drawn)
0
C[C@@H]1CC[C@H]2[C@@H](C)C(=O)O[C@@H]3OC(C)(C)OO[C@@]32C1
75

Data request: Need Relative potency (W-2 clone), item CC1(C)OO[C@]23CCCC[C@H]2CC(=O)O[C@@H]3O1 (relative stereo)
Data returned: 0.5

Data request: Need Relative potency (W-2 clone), item CCCC[C@H]1C(=O)O[C@@H]2OC(C)(C)OO[C@@]23CCCC[C@@H]13 (relative stereo)
Data returned: 7

Data request: Need Relative potency (W-2 clone), item CCC1(CC)OO[C@]23CCCC[C@H]2[C@@H](C)C(=O)O[C@@H]3O1 (relative stereo)
Data returned: 3

====

# Tested on: P. falciparum W-2 clone
# procedure-summary: In vitro antimalarial activity, P. falciparum W-2 clone
# Format: cell-based
# condition-set: Table 2; W-2 clone; drawing 57 (artemisinin) = 100
measured-property: Relative potency (W-2 clone)
# answer = number (no unit)

Example cases with answers are listed next.
CCC[C@H]1[C@@H](OCC)O[C@@H]2O[C@@]3(C)CC[C@H]4[C@H](C)CC[C@@H]1[C@@]24OO3 [compound 4600]
76
C[C@@H]1CC[C@H]2[C@@H](C)C(=O)O[C@@H]3O[C@@]4(C)CC[C@@H]1[C@]32OO4 [(+)-Artemisinin, reference compound]
100

Now consider a different compound.
Data request: Need Relative potency (W-2 clone), item CCC[C@H]1C(=O)O[C@@H]2O[C@@]3(C)CC[C@H]4[C@H](C)CC[C@@H]1[C@@]24OO3 [compound 4599]
Data returned: 1225

====

# System: P. falciparum D-6 clone
# procedure-summary: In vitro antimalarial activity, P. falciparum D-6 clone
# Assay type: cell-based
# condition-set: Plasmodium falciparum; Table 2; D-6 clone, drug-resistant strains of P. falciparum; read-out: IC50 D-6 clone
Reported IC50 values are given for each entry in this list.

Data request: Need IC50, item "C[C@@H]1CC[C@H]2CC(=O)N(Cc3ccccc3)[C@@H]3O[C@@]4(C)CC[C@@H]1[C@@]23OO4"
Data returned: 0.45 ng/mL

Data request: Need IC50, item "CCCCCC[C@H]1C(=O)O[C@@H]2O[C@@]3(C)CC[C@H]4[C@H](C)CC[C@@H]1[C@@]24OO3"
Data returned: 0.03 ng/mL

Data request: Need IC50, item "CCCCCCCCCCCCCC[C@H]1C(=O)O[C@@H]2O[C@@]3(C)CC[C@H]4[C@H](C)CC[C@@H]1[C@@]24OO3"
Data returned: 81.3 ng/mL

Data request: Need IC50, item "CCO[C@H]1O[C@@H]2O[C@@]3(C)CC[C@H]4[C@H](C)CC[C@@H]([C@H]1CC)[C@@]24OO3"
Data returned: 0.22 ng/mL

Data request: Need IC50, item C[C@@H]1CC[C@H]2[C@@H](C)C(=O)O[C@@H]3O[C@@]4(C)CC[C@@H]1[C@]32OO4 [(+)-Artemisinin, reference compound]
Data returned: 4.44 ng/mL

Data request: Need IC50, item "CCC[C@H]1[C@@H](OCC)O[C@@H]2O[C@@]3(C)CC[C@H]4[C@H](C)CC[C@@H]1[C@@]24OO3"
Data returned: 0.39 ng/mL
